Data origin, for the record: paper PMC5618341

# Test Target: WDR5Δ23 (Homo sapiens)
# Construct: His6-SUMO (N, cleaved yes); made in house; host or cells: E. coli DH5α (so in the source)
# Assay Summary: Fluorescence polarization (FP)-based competitive binding assay
# Condition Context: non-irradiated peptide (trans isomer); 72 nM WDR5Δ23, 20 nM tracer 22; read-out: Ki, non-irradiation (trans)
Starred links: 1 amine or outer side, 2 acyl side, 3 side chain; linkers in the order of their positions; H or OH if unused. Non-standard residues stand in square brackets, D forms with d. Residues, ends and D or L forms follow the SMILES beside them. AMPB = O=C(c1ccc(N=Nc2ccc(CN[*:1])cc2)cc1)[*:2]
Below, each entry is listed alongside its reported pKi.
Worth noting: pKi values are minus log10 of concentrations stated in mol/L.

Compound	Value Measured
CC(C)C[C@H](NC(=O)[C@H](Cc1c[nH]cn1)NC(=O)c1ccc(N=Nc2ccc(CNC(=O)[C@H](C)NC(=O)[C@H](CCCNC(=N)N)NC(=O)[C@H](C)NC(=O)[C@@H](N)CO)cc2)cc1)C(=O)N[C@@H](CCCNC(=N)N)C(=O)N[C@@H](CCCCN)C(=O)N[C@@H](CO)C(N)=O [peptide 13, H2N-SARAXHLRKS-CONH2] (H-SARA[AMPB]HLRKS-NH2)	8.44

Attention now shifts to the item below.
Enquiry: Look up pKi for this compound: CC(C)C[C@H](NC(=O)[C@H](Cc1c[nH]cn1)NC(=O)[C@@H](NC(=O)[C@H](CCC(=O)O)NC(=O)[C@H](C)NC(=O)[C@H](CCCNC(=N)N)NC(=O)[C@H](C)NC(=O)[C@@H](N)CO)C(C)C)C(=O)NCc1ccc(N=Nc2ccc(C(=O)N[C@@H](CCCCN)C(=O)N[C@@H](CO)C(N)=O)cc2)cc1 [peptide 11, H2N-SARAEVHLXKS-CONH2] (H-SARAEVHL[AMPB]KS-NH2)
Return: 7.48
